details: in isopropyl acetate, 328.15 K
TEST READOUT: solubility (mole fraction)
Please state the value as a number alone, without comment.

stdin: Record request: solubility (mole fraction) value, item `CN1CCN(C(=O)O[C@H]2c3nccnc3C(=O)N2c2ccc(Cl)cn2)CC1`
stdout: 0.00226

====

details: in isopropyl acetate, 298.15 K
TEST READOUT: solubility (mole fraction)

stdin: For the compound shown here, `CN1CCN(C(=O)O[C@H]2c3nccnc3C(=O)N2c2ccc(Cl)cn2)CC1` , give the reported solubility (mole fraction).
stdout: 0.000964

====

settings: in n-propanol, 288.15 K
TEST READOUT: solubility (mole fraction)
Give the figure by itself; no unit, no explanation.

stdin: # query: solubility (mole fraction) of entry `CN1CCN(C(=O)O[C@H]2c3nccnc3C(=O)N2c2ccc(Cl)cn2)CC1`
stdout: 0.00013
